- assay remarks: wn = mass fraction of the nth substance listed
- test settings: 333.15 K, Pendant drop shape, w1 = 0.1
observed property: surface tension liquid-gas (mN/m)

| molecule | observed property | reading |
| --- | --- | --- |
| [Cl-].[K+] [potassium chloride] + O | surface tension liquid-gas | 66.39 |
| [Cl-].[Na+] [sodium chloride] + O | surface tension liquid-gas | 69.74 |
| O=S(=O)([O-])[O-].[Na+].[Na+] [sodium sulfate] + O | surface tension liquid-gas | 69.11 |
| [Ca+2].[Cl-].[Cl-] [calcium chloride] + O | surface tension liquid-gas | 68.56 |

---

- assay remarks: wn = mass fraction of the nth substance listed
- test settings: 323.15 K, Pendant drop shape, w1 = 0.14
observed property: surface tension liquid-gas (mN/m)

| compound | reading |
| --- | --- |
| [Cl-].[K+] [potassium chloride] + O | 69.15 |
| [Cl-].[Na+] [sodium chloride] + O | 72.47 |
| [Ca+2].[Cl-].[Cl-] [calcium chloride] + O | 71.52 |
| O=S(=O)([O-])[O-].[Na+].[Na+] [sodium sulfate] + O | 71.65 |

---

- assay remarks: wn = mass fraction of the nth substance listed
- test settings: 303.15 K, Pendant drop shape, w1 = 0.18
observed property: surface tension liquid-gas (mN/m)

| molecule | unit abbreviation | reading |
| --- | --- | --- |
| [Ca+2].[Cl-].[Cl-] [calcium chloride] + O | mN/m | 77.53 |
| [Cl-].[K+] [potassium chloride] + O | mN/m | 76.78 |
| [Cl-].[Na+] [sodium chloride] + O | mN/m | 77.04 |
| O=S(=O)([O-])[O-].[Na+].[Na+] [sodium sulfate] + O | mN/m | 76.28 |

---

- assay remarks: wn = mass fraction of the nth substance listed
- test settings: 323.15 K, Pendant drop shape, w1 = 0.1
observed property: surface tension liquid-gas (mN/m)

| compound | reading |
| --- | --- |
| O=S(=O)([O-])[O-].[Na+].[Na+] [sodium sulfate] + O | 70.5 |
| [Cl-].[Na+] [sodium chloride] + O | 70.97 |
| [Cl-].[K+] [potassium chloride] + O | 67.57 |
| [Ca+2].[Cl-].[Cl-] [calcium chloride] + O | 70.38 |

---

- assay remarks: wn = mass fraction of the nth substance listed
- test settings: 303.15 K, Pendant drop shape, w1 = 0.14
observed property: surface tension liquid-gas (mN/m)

| molecule | surface tension liquid-gas (mN/m) |
| --- | --- |
| [Ca+2].[Cl-].[Cl-] [calcium chloride] + O | 76.08 |
| O=S(=O)([O-])[O-].[Na+].[Na+] [sodium sulfate] + O | 74.02 |
| [Cl-].[K+] [potassium chloride] + O | 72.12 |
| [Cl-].[Na+] [sodium chloride] + O | 76.09 |

---

- assay remarks: wn = mass fraction of the nth substance listed
- test settings: 313.15 K, Pendant drop shape, w1 = 0.18
observed property: surface tension liquid-gas (mN/m)

| molecule | surface tension liquid-gas, mN/m |
| --- | --- |
| O=S(=O)([O-])[O-].[Na+].[Na+] [sodium sulfate] + O | 74.97 |
| [Ca+2].[Cl-].[Cl-] [calcium chloride] + O | 74.89 |
| [Cl-].[K+] [potassium chloride] + O | 75.23 |
| [Cl-].[Na+] [sodium chloride] + O | 74.73 |
